Test system: mouse peritoneal macrophages
Assay: In vitro experiment using mouse peritoneal macrophages: suppression of foaming, cholesterol ester (CE) yield
Type: cell-based
Conditions: test compound 5 μM with liposomes, 16 hours; cholesterol ester yield relative to control without test compound = 100%; smaller value = more potent suppression
measurement-type: CE yield (%)
Please answer using the number first and the unit second.

Examples with answers:
CCCCCCN(CCCCCSc1nc2ccccc2[nH]1)C(=O)Nc1ccc(F)cc1F [Ref. 3, reference compound]; 78%
COc1ccc2[nH]c(SCCN3CCNCC3)nc2c1 [Ref. 5, reference compound]; 102%
CCCn1c(SCCCCCN2CCOCC2)nc2ccccc21; 27%
O=C(CCCCSc1nc2ccccc2[nH]1)N1CCCc2ccccc21; 18%

-- ask Data request, read-out CE yield (%), for CC(C)Oc1cccc(OC(C)C)c1NC(=O)CN1CCN(CCCSc2nc3ccccc3[nH]2)CC1 [Ref. 1, reference compound]
-- reply 95%

-- ask Data request, read-out CE yield (%), for O=C(CCN1CCCCC1)CSc1nc2ccccc2[nH]1 [Ref. 4, reference compound]
-- reply 89%

-- ask Data request, read-out CE yield (%), for c1ccc2[nH]c(SCCOCCN3CCOCC3)nc2c1
-- reply 4.6%

-- ask Data request, read-out CE yield (%), for CC(C)c1cc(C(C)C)c(NC(=O)CN2CCN(CCSc3nc4ccccc4[nH]3)CC2)c(C(C)C)c1 [Ref. 2, reference compound]
-- reply 98%

-- ask Data request, read-out CE yield (%), for CCC(=O)n1c(SCCCCCN2CCOCC2)nc2ccccc21
-- reply 22%
